Test system: murine peritoneal macrophages
assay: NO2- production by periodate-activated murine peritoneal macrophages
Type: cell-based
assay.conditions: SSI 50 uM; no LPS; 1 DAY
property.label: NO2- Production by Macrophages (µg)
Respond with the bare value in µg.

Query: I'm curious: which NO2- Production by Macrophages was measured for N#CC(C#N)=Cc1ccc([N+](=O)[O-])c(O)c1 [SSI 3] tested on murine peritoneal macrophages?
Response: 5

Query: How about this compound: N#CC(=Cc1cc(O)c(O)c([N+](=O)[O-])c1)C(=O)O [SSI 9]
Response: 36

====

Reported NO2- Production by Macrophages by item:
System: murine peritoneal macrophages
assay: NO2- production by periodate-activated murine peritoneal macrophages
Format: cell-based
assay.conditions: SSI 20 uM; no LPS; 2 DAY

// below: answered compounds
N#CC(C#N)=Cc1cc(O)c(O)c([N+](=O)[O-])c1: 13,5 µg
N#CC(=Cc1cc(O)c(O)c([N+](=O)[O-])c1)C(=O)O: 57,2 µg
N#CC(=Cc1cc(O)c(O)c([N+](=O)[O-])c1)C(=O)NCCCc1ccccc1: 27,9 µg

Moving on to another compound below.
Query: For the compound shown here, `N#CC(C#N)=Cc1ccc([N+](=O)[O-])c(O)c1` , give the reported NO2- Production by Macrophages.
Response: 17,5 µg

====

Test system: murine peritoneal macrophages
assay: NO2- production by periodate-activated murine peritoneal macrophages
Assay type: cell-based
assay.conditions: SSI 50 uM; no LPS; 2 DAY
Reported NO2- Production by Macrophages by item:

// below: answered compounds
N#CC(=Cc1cc(O)c(O)c([N+](=O)[O-])c1)C(=O)NCCCc1ccccc1: 12,3 µg
N#CC(C#N)=Cc1cc(O)c(O)c([N+](=O)[O-])c1: 8,1 µg
N#CC(C#N)=Cc1ccc([N+](=O)[O-])c(O)c1: 8,6 µg

Moving on to another compound below.
Query: For the compound shown here, `N#CC(=Cc1cc(O)c(O)c([N+](=O)[O-])c1)C(=O)O` , give the reported NO2- Production by Macrophages.
Response: 51 µg
